Measured protein stability index, listed per entry.
B1: DFFB (parent)
chain: KLNCDPSRIYKPQTRLKRKQPVRK

Variants of: B1
assay.name: protein stability index of a GFP-peptide fusion (GPS, HEK-293T) (PSI 1-6); higher = more stable;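 further: lentivirally expressed fusions sorted by FACS into six bins by GFP to DsRed ratio, PSI derived from sequencing read proportions per bin multiplied by bin number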
test.settings: c terminus: a fixed tail appended

- sequence.text: "KLNCDESRIYKPQTRLKRKQPVRK"
  protein stability index: 4.13
- sequence.text: "KLNCDPSRILKPQTRLKRKQPVRK"
  protein stability index: 3.84
- sequence.text: "KLNCDPSRIYKCQTRLKRKQPVRK"
  protein stability index: 3.21
- sequence.text: "KLNCDPSRIYKPQTRLKRKGPVRK"
  protein stability index: 4.19
- sequence.text: "KLNCDPSRIYKPQTRLYRKQPVRK"
  protein stability index: 3.68
- sequence.text: "KLNCDPSRIYKPQGRLKRKQPVRK"
  protein stability index: 3.49
- sequence.text: "KLNCDPSRIYKPQTRLKHKQPVRK"
  protein stability index: 3.13
- sequence.text: "KLNCDPSRIYKPQHRLKRKQPVRK"
  protein stability index: 3.77
- sequence.text: "KLNCDPSRIYKPATRLKRKQPVRK"
  protein stability index: 4.01
- sequence.text: "KLLCDPSRIYKPQTRLKRKQPVRK"
  protein stability index: 3.06
- sequence.text: "KLNCDPSRIDKPQTRLKRKQPVRK"
  protein stability index: 3.55
- sequence.text: "KLNCDPSRIYKHQTRLKRKQPVRK"
  protein stability index: 3.13
- sequence.text: "KLNCDPSRIYKRQTRLKRKQPVRK"
  protein stability index: 3.33
- sequence.text: "KLNCDPSRIYKPGTRLKRKQPVRK"
  protein stability index: 3.56
- sequence.text: "KLNCDPSRIYKPQTRLKRKQPARK"
  protein stability index: 3.77
- sequence.text: "KLNCDPSRIYKPQTRLIRKQPVRK"
  protein stability index: 3.21
- sequence.text: "KLNCDPSRIYDPQTRLKRKQPVRK"
  protein stability index: 3.21
- sequence.text: "KLNCDPSRIYKPQTRLKRKQPKRK"
  protein stability index: 3.14
- sequence.text: "KLNCDPSRIYKPQTRFKRKQPVRK"
  protein stability index: 2.8
- sequence.text: "KLNCSPSRIYKPQTRLKRKQPVRK"
  protein stability index: 3.35
- sequence.text: "KLNMDPSRIYKPQTRLKRKQPVRK"
  protein stability index: 2.35
- sequence.text: "KLNGDPSRIYKPQTRLKRKQPVRK"
  protein stability index: 2.77

Source of measurements: the supplement of paper PMC10567573
